Assay: Absorption maxima of dyes
Assay type: physicochemical
Conditions: main value
Recorded Endpoint: Absorption maximum (nm)

- Cc1cc(-c2ccc(/N=N/c3c(S(=O)(=O)O)cc4cc(S(=O)(=O)O)cc(N)c4c3O)c(C)c2)ccc1/N=N/c1c(S(=O)(=O)O)cc2cc(S(=O)(=O)O)cc(N)c2c1O [Trypan Blue]: 607
- O=S1(=O)OC(c2ccc(O)cc2)(c2ccc(O)cc2)c2ccccc21 [Phenol Red]: 557
- O=C(O)c1nn(-c2ccc(S(=O)(=O)O)cc2)c(O)c1N=Nc1ccc(S(=O)(=O)O)cc1 [Tartrazine]: 425
- CC(=O)Nc1ccc(N=Nc2c(N)ccc3cc(S(=O)(=O)[O-])cc(O)c23)c(S(=O)(=O)[O-])c1.[Na+].[Na+] [Acid Red 37]: 513
